Each recorded value in this set is attributed to patent US5698538A.

- tested.target: human factor VIIa (Homo sapiens, UniProt P08709)
- Construct: Factor VIIa in the extrinsic pathway; purchased BiosPacific, Emeryville, Calif
- Sequence (P08709 213-466 limits assumed): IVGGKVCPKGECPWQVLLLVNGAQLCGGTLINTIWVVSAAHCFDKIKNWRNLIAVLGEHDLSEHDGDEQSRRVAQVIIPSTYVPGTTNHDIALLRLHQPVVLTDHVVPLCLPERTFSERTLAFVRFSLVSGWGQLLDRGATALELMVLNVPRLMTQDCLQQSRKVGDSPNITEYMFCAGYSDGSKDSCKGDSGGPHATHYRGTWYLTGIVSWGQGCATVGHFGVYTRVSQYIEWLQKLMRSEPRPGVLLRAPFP
- Sequence (P08709 61-212 partner limits assumed): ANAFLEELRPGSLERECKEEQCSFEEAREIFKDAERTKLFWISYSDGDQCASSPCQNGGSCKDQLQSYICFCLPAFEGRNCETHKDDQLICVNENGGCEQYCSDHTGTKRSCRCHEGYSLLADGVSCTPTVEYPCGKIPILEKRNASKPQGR
- protocol.details: Inhibition of human factor VIIa (chromogenic substrate S2288), inhibitory constant Ki
- Format: biochemical
- recorded.conditions: 50 nM human factor VIIa, S2288, pH 7.6, 4 mM CaCl2, 30 minutes; read-out: Ki values for inhibition of Serine Proteases: Factor VIIa
Would you mind telling me the reported Ki of each entry?

IN: # lookup: Ki of CC1(C)C2CC3OB([C@H](CCCCN)NC(=O)c4cnc(-c5ccccc5)nc4-c4ccccc4)OC3(C)C1C2 (single isomer, unassigned)
OUT: 500 to 50000 nM

IN: Quick check: Ki of Cc1cc(-c2ccccc2S(=O)(=O)NC(C)(C)C)ccc1C(=O)N[C@@H](CCCNC(=N)N)B(O)O ?
OUT: < 500 nM

IN: What does the data say about its Ki? Entry: CC1(C)C2CC3OB([C@H](CCCCN)NC(=O)Cn4nc(Cc5ccccc5)nc4Cc4ccccc4)OC3(C)C1C2 (stereo partly drawn)
OUT: 500 to 50000 nM
